System: human keratinocyte (HaCaT) cell line
Experiment: MTT cell viability on normal cell line HaCaT
Format: cell-based
Details: Homo sapiens, 24 h, read-out: IC50 ± S.D. HaCaT
PROPERTY NAME: IC50 (µM)
Express it in µM; write the number only.

Completed entries (count: 2):
# COMPOUND, TGT, IC50 [µM]
data = [
    ("CC=C(C)C(=O)OCC1c2c(c(OC(C)=O)c(C)c3c2OCO3)CC2C3C4=C(CC(C(C#N)N12)N3C)C(=O)C(C)=C(OC)C4=O (stereo not drawn) [Compound 3a, 5-O-acetyl renieramycin T]", "human keratinocyte (HaCaT) cell line", 0.00949),
    ("C/C=C(/C)C(=O)OC[C@H]1c2c(c(OC(=O)c3ccc4ccccc4n3)c(C)c3c2OCO3)C[C@H]2[C@H]3C4=C(C[C@@H]([C@H](C#N)N12)N3C)C(=O)C(C)=C(OC)C4=O [Compound 3i, 5-O-(2-quinolinecarbonyl) ester]", "human keratinocyte (HaCaT) cell line", 0.028),
]

Below: the item to evaluate.
Recorded IC50 for C/C=C(/C)C(=O)OC[C@H]1c2c(c(OC(=O)CC)c(C)c3c2OCO3)C[C@H]2[C@H]3C4=C(C[C@@H]([C@H](C#N)N12)N3C)C(=O)C(C)=C(OC)C4=O [Compound 3b] , please? 0.0337
